system: Plasmodium falciparum; experiment: In vitro antimalarial activity against chloroquine-sensitive Plasmodium falciparum D6 (CDC/Sierra Leone I); format: functional, organism-based
quantityKind: pIC50
Notebook: values listed as pIC50 are -log10 of the concentration (mol/L).

Record excerpt, results attached:
[[record]]
smiles = "COc1ccc(C(=O)/C=C\\c2ccc(Cl)cc2Cl)c(OC)c1OC"
experimentalresult = 6.37

[[record]]
smiles = "O=C(/C=C/c1cc2ccccc2nc1Cl)c1ccc(F)cc1F"
experimentalresult = 6.01

[[record]]
smiles = "O=C(/C=C/c1ccc(Cl)cc1Cl)c1ccc(-n2ccnc2)cc1"
experimentalresult = 6.05


Prompt line: Query pIC50 on Plasmodium falciparum for COc1ccc(C(=O)/C=C/c2cc3ccccc3nc2Cl)c(OC)c1
Response line: 5.89

Prompt line: Now give it for COc1ccc(/C=C/C(=O)c2ccc(Cl)cc2Cl)c(OC)c1 too.
Response line: 5.47

Taken from ChEMBL document CHEMBL1128219.
